test system: cytosolic chaperonin (CCT/TRiC complex); assay: High-Throughput Screening for Modulators of Cytosolic Chaperonin Activity; conditions: purified chaperonin ATPase assay, HTRF ADP detection, 30 min; active compounds read low; also: % is scaled to controls: 0 for no effect and ±100 for the full control effect
About 1,100 (0.31%) of roughly 360,000 compounds were called active. The full list was thinned out, with actives kept by preference.
For each record, write down the corresponding activity change.
Your answer should be a plain number; it is taken to be in %.

Which activity change value is on record for "CC(=O)c1c(C)[nH]c(C(=O)COc2ccc3c(C)cc(=O)oc3c2)c1C" ?
-0.599

Quick one: activity change of Nc1nc(NCC2CCCO2)nc(Nc2ccccc2F)c1[N+](=O)[O-] (stereo unspecified) ?
0.16

Sample "CCCCCCn1cc(C(=O)O)c(=O)c2cc(F)c(N3CCCCC3)cc21" — what was its activity change?
-2.93

Requested read-out: activity change. Entry: "Cc1cc(C)n2nc(C(=O)Nc3cccc(S(=O)(=O)N4CCOCC4)c3)nc2n1"
-34.4

Tell me the measured activity change of CC1(C)CC[C@]2(C(=O)O)CC[C@]3(C)C(=CCC4[C@@]5(C)CC[C@H](O)C(C)(C)C5[C@H](O)C[C@]43C)[C@@H]2C1 (stereo partly specified) , please.
0.294

Can you share its activity change? I mean this molecule: "CCn1cc(C(=O)NCCO)c(=O)c2cc(F)c(N3CCN(C)CC3)cc21"
-0.12

Given the molecule "Cc1n[nH]c(=O)n1-c1ccc(Oc2ccccc2)cc1" , what is its reported activity change?
-105

Tell me the measured activity change of O=C1CS(=O)CN1c1ccc(Oc2ccccc2)cc1 (stereo unspecified) , please.
-3.89

Suppose we examine the molecule CSCCC(NC(=O)C1CCC(C)CC1)C(=O)NCc1ccco1 (stereo unspecified) ; what activity change value has been reported?
-5.62

Sample CC1CCC2(CC1)NC(=O)N(CC(=O)c1cccn1C)C2=O (stereo unspecified) — what was its activity change?
0.876

# activity change lookup, item "Cc1ccc2c(c1)c1ncnc(N3CCc4ccccc4C3)c1n2C"
1.95

Given the entry "COc1cccc(CNS(=O)(=O)c2csc(C(N)=O)c2)c1" , report its measured activity change.
0.982

Please look up its activity change: "COc1ccccc1N1CCN(C(=O)CSc2ncnc3c2cnn3-c2ccc(C)c(C)c2)CC1"
-0.613

Bench note: what activity change did "Nc1nc(Nc2ccccc2F)nc(NC2CCCCC2)c1[N+](=O)[O-]" show?
-0.808

Query (molecule): "CCN(CC)CCCN=C(N)N" ; field requested: activity change
-0.0838

Given "Cc1ccc(S(=O)(=O)/N=C(/NC(=S)Nc2c(C)n(C)n(-c3ccccc3)c2=O)c2ccccc2)cc1" , state its recorded activity change.
-1.68

What measured activity change goes with CC(=O)Nc1ccc(S(=O)(=O)NCC2CCC(C(=O)NCCc3ccccc3)CC2)cc1 (stereo unspecified) ?
-1.57

So what does the record say about activity change for COc1ccc(NC(=O)C2CCC(CNS(=O)(=O)c3csc(C(N)=O)c3)CC2)cc1OC (stereo unspecified) ?
-80.6

What does the record list as activity change for "CN1CCN(c2cc3c(cc2F)c(=O)c(C(=O)O)cn3CCF)CC1" ?
-35.1

Which activity change value belongs to CC(C)(C)C(=O)NC1CC2CCCC(C1)N2C(=O)Nc1ccccc1F (stereo unspecified) ?
-5.23

# input molecule: Cc1ccc(CN2CC(C(=O)NNC(=O)Cn3ccc(C(F)(F)F)n3)CC2=O)cc1 (stereo unspecified) ; wanted: its activity change
-2.29
